- Tested on: NCI-H358 cells expressing KRAS-G12C
- Assay Explanation: Growth inhibition of tumor cell line expressing KRAS-G12C (Cell Titer Glo), NCI-H358
- Format: cell-based
- Conditions Used: Homo sapiens, NCI-H358, 72 h
Measurement Name: GI50
Reply with a number, then the unit it belongs to.

[[record]]
molecule = "C=CC(=O)N1C[C@@H]2C(=O)N(C)c3c(c4cc(F)c(-c5c(C)ccc6[nH]ncc56)c(F)c4n(-c4c(C)ccnc4C(C)C)c3=O)N2C[C@H]1C [Compound 32A]"
measurement_name = "GI50"
value_observed = "442 nM"


What is its GI50 for NCI-H358 cells expressing KRAS-G12C? Entry: C=CC(=O)N1C[C@@H]2CN(C)c3c(c4cc(Cl)c(-c5c(O)cccc5F)nc4n(-c4c(C)ccnc4C(C)C)c3=O)N2C[C@H]1C [Compound 8]
22 nM

Please answer likewise for C=CC(=O)N1C[C@@H]2CN(CCO)c3c(c4cc(F)c(-c5c(O)cccc5F)c(F)c4n(-c4c(C)ccnc4C(C)C)c3=O)N2C[C@H]1C [Compound 36A-1]
32 nM

Please answer likewise for C=CC(=O)N1C[C@@H]2CN(CC(=O)OC)c3c(c4cc(F)c(-c5c(O)cccc5F)c(F)c4n(-c4c(C)ccnc4C(C)C)c3=O)N2C[C@H]1C [Compound 38B]
77 nM

Please answer likewise for C=CC(=O)N1C[C@@H]2C(=O)N(C)c3c(c4cc(F)c(-c5c(C)ccc6[nH]nc(N)c56)c(F)c4n(-c4c(C)ccnc4C(C)C)c3=O)N2C[C@H]1C [Compound 28A]
7 nM

Please answer likewise for C=CC(=O)N1C[C@@H]2C(=O)N(C)c3c(c4cc(F)c(-c5c(O)cccc5F)c(F)c4n(-c4c(C)ccnc4C(C)C)c3=O)N2C[C@H]1C [Compound 21A-1]
91 nM

Please answer likewise for C=CC(=O)N1C[C@@H]2C(=O)N(CCN(C)C)c3c(c4cc(Cl)c(-c5c(O)cccc5F)nc4n(-c4c(C)ccnc4C(C)C)c3=O)N2C[C@H]1C [Compound 29A]
44 nM

Please answer likewise for C=CC(=O)N1C[C@@H]2C(=O)N(C)c3c(c4cc(F)c(-c5c(O)cccc5F)nc4n(-c4ccccc4C(C)C)c3=O)N2C[C@H]1C (atropisomer, axis not shown) [Compound 7B]
148 nM

Please answer likewise for C=CC(=O)N1C[C@@H]2COc3c(c4cc(Cl)c(-c5c(O)cccc5F)c(F)c4n(C)c3=O)N2C[C@H]1C [Compound 4A]
523 nM

Please answer likewise for C=CC(=O)N1C[C@@H]2C(=O)N(CCCO)c3c(c4cc(F)c(-c5c(O)cccc5F)c(F)c4n(-c4c(C)ccnc4C(C)C)c3=O)N2C[C@H]1C [Compound 41A]
530 nM
